- Test Context: buffer; pH 7.4; 200.0 µM
Provide the recorded solubility kinetic for the entries that follow.

[[record]]
compound = "O=C(CN1C(=O)NC(c2ccc(F)cc2)C1=O)NC1CCCCC1 (stereo not drawn)"
endpoint_value = "> 50 µg/mL"


Could you tell me solubility kinetic for each of these compounds? They are listed below.
1. COc1ccc(COCC(O)CN2CCC(C(N)=O)CC2)cc1 (stereo not drawn)
2. COc1ccccc1NC(=O)Cn1c([N+](=O)[O-])cnc1C
3. COc1ccc(-n2c3c(cc(C#N)c2=O)C(=O)CCC3)cc1
4. CC1CN(C(=O)COC(=O)c2ccc(N(C)C)cc2)CC(C)O1 (stereo not drawn)
5. N#Cc1ccsc1NC(=O)CCN1C(=O)C2CCCCC2C1=O (stereo not drawn)
6. COC(=O)[C@H](CC(C)C)NC(=O)N1CCCCC1C (stereo partly drawn)

Marked response:
1. > 48.4 µg/mL
2. > 43.5 µg/mL
3. > 44.1 µg/mL
4. > 48.1 µg/mL
5. > 49.7 µg/mL
6. > 40.6 µg/mL

Could you tell me solubility kinetic for each of these compounds? They are listed below.
1. O=C(COC(=O)Cc1ccc(F)cc1)NCCc1ccccc1
2. OCC(O)CNC(=S)NC1CCCCC1 (stereo not drawn)
3. Cc1cc(C)c2c(CN3CCCCC3C)cc(=O)oc2c1.Cl (stereo not drawn)
4. Cc1ncc([N+](=O)[O-])n1CC(=O)Nc1ccc(F)c(Cl)c1
5. CC1(C)Cc2cccc(C(=O)Nc3ccncc3)c2O1
6. C/C=C/C=C/C(=O)OCC(=O)Nc1ccc(Cl)cc1

Marked response:
1: > 47.3 µg/mL; 2: > 34.9 µg/mL; 3: 2 µg/mL; 4: 0.5 µg/mL; 5: 34.8 µg/mL; 6: 6.2 µg/mL

* * *

Provide the recorded solubility kinetic for the entries that follow.
- Test Context: buffer; pH 7.4; 200.0 µM

Here are 3 molecules together with their reported answers.
[[record]]
molecule = "Cc1n(Cc2ccccc2)c2cc([N+](=O)[O-])ccc2[n+]1Cc1ccccc1.[Cl-]"
measurement_kind = "solubility kinetic"
endpoint_value = "> 59.1 µg/mL"

[[record]]
molecule = "CCN1C/C(=N\\S(=O)(=O)/N=C2\\CN(CC)C(=O)N2CC)N(CC)C1=O"
measurement_kind = "solubility kinetic"
endpoint_value = "> 55.9 µg/mL"

[[record]]
molecule = "O=C(c1cc(Cl)ccc1OCc1ccccc1)N1CCOCC1"
measurement_kind = "solubility kinetic"
endpoint_value = "> 49.8 µg/mL"


Could you tell me solubility kinetic for each of these molecules? They are listed below.
1. C=CC(=O)NC1CC2CCC1(C)C2(C)C (stereo not given)
2. CCc1c(SCCC(=O)O)nc2ccccc2c1C

Marked response:
> 31.1 µg/mL
> 41.3 µg/mL

* * *

- Test Context: buffer; pH 7.4; 200.0 µM
Provide the recorded solubility kinetic for the entries that follow.

[[record]]
molecule = "CCC(=O)c1cn(CC(=O)Nc2ccc(OC)cc2)c2ccccc12"
endpoint_value = "< 0.4 µg/mL"

[[record]]
molecule = "COc1ccc(C(CNC(=O)c2ccc3c(c2)CCC3)N(C)C)cc1 (stereo not given)"
endpoint_value = "> 50.8 µg/mL"

[[record]]
molecule = "Cc1cccc(NC(=O)CNC(=O)COC(=O)C2CC2C)c1C (stereo not given)"
endpoint_value = "> 47.8 µg/mL"

[[record]]
molecule = "COCCSc1ccccc1C(=O)N1CCc2ccccc2C1"
endpoint_value = "> 49.1 µg/mL"


// below: solubility kinetic requested for another molecule
Exam item: Let me know recorded solubility kinetic for `COC(=O)c1ccc(COC(=O)CNC(=O)c2cccs2)cc1` , thanks.
Marked response: > 50 µg/mL

* * *

- Test Context: buffer; pH 7.4; 200.0 µM
Provide the recorded solubility kinetic for the entries that follow.

Here are 4 molecules together with their reported answers.
[[record]]
molecule = "CC1=C(C#N)C2(O)C(=O)c3ccccc3C2(O)N1 (stereo not given)"
measurement_kind = "solubility kinetic"
endpoint_value = "> 36.3 µg/mL"

[[record]]
molecule = "O=C(CSc1cccc[n+]1[O-])Nc1ccc(Br)cc1Br"
measurement_kind = "solubility kinetic"
endpoint_value = "6.7 µg/mL"

[[record]]
molecule = "Cc1cccc(N2CCN(C(=O)[C@H](C)N3C(=O)C4CC=CCC4C3=O)CC2)c1C (stereo not given in full)"
measurement_kind = "solubility kinetic"
endpoint_value = "> 59.3 µg/mL"

[[record]]
molecule = "Cc1nc(N2CCCCC2)sc1C=O"
measurement_kind = "solubility kinetic"
endpoint_value = "> 31.5 µg/mL"


// below: solubility kinetic requested for another molecule
Exam item: Let me know recorded solubility kinetic for `COc1ccc(CN2CCCCCC2)cc1OC` , thanks.
Marked response: 21.6 µg/mL

* * *

- Test Context: buffer; pH 7.4; 200.0 µM
Measurement Kind: solubility kinetic

[[record]]
molecule = "CCOC(=O)c1ccc(CN2Cc3ccccc3C2=O)cc1"
measurement_kind = "solubility kinetic"
endpoint_value = "> 44.3 µg/mL"

[[record]]
molecule = "O=C(O)c1ccc(NCc2nc3ccccc3n2Cc2ccccc2)cc1"
measurement_kind = "solubility kinetic"
endpoint_value = "> 53.6 µg/mL"

[[record]]
molecule = "CCOC(=O)CCNCc1ccc(F)cc1.Cl"
measurement_kind = "solubility kinetic"
endpoint_value = "> 39.3 µg/mL"

[[record]]
molecule = "Cc1cccc(C(=O)NCC(=O)N2CCCCCCC2)c1"
measurement_kind = "solubility kinetic"
endpoint_value = "> 43.3 µg/mL"

[[record]]
molecule = "C=CCNC(=O)N1CCCC(C(=O)c2cccc(OC(C)C)c2)C1 (stereo not drawn)"
measurement_kind = "solubility kinetic"
endpoint_value = "> 49.6 µg/mL"


Could you tell me solubility kinetic for each of these molecules? They are listed below.
1. Cc1nc(CN(C)Cc2nc(Cc3cccc(F)c3)no2)cs1
2. CCc1nnc(NC(=O)CSc2nc(C)cs2)s1
3. Cc1cc(C)nc(SCc2cn3c(C)cc(C)nc3n2)n1

Marked response:
["> 49.9 µg/mL", "> 45.1 µg/mL", "> 44.9 µg/mL"]

Could you tell me solubility kinetic for each of these molecules? They are listed below.
1. CC1=C(Cl)C2=NS(=O)(=O)CCN2C=C1Cl
2. O=C(CN1C(=O)NC2(CCCC2)C1=O)NCCc1ccc(F)cc1
3. CC(C)C(NC(=O)c1ccco1)C(=O)NCc1ccc(C(=O)O)cc1 (stereo not drawn)
4. Cn1c(=O)n(C)c2cc3[nH]cnc3cc21
5. Cc1c(C)[n+](=O)c(-c2ccc(Br)cc2)c(C)n1[O-]
6. CC1CCCC(C)N1C(=O)COC(=O)c1cccnc1Cl (stereo not drawn)
7. CCOc1ccc(S(=O)(=O)N2CCN(c3ccccn3)CC2)cc1

Marked response:
1: > 40.1 µg/mL; 2: 44.4 µg/mL; 3: > 51.7 µg/mL; 4: > 30.3 µg/mL; 5: > 46.4 µg/mL; 6: > 46.6 µg/mL; 7: 1.6 µg/mL

Could you tell me solubility kinetic for each of these molecules? They are listed below.
1. CCN(C(=O)COC(=O)c1ccc(SC)cc1OC)C1CCS(=O)(=O)C1 (stereo not drawn)
2. COC(=O)C1C(c2ccccc2)NC(=O)NC1(O)C(F)(F)Cl (stereo not drawn)
3. CC12CCC(C(=O)Nc3ccncc3)(CC1O)C2(C)C (stereo not drawn)
4. CCN1C(=O)NC(c2ccccc2)(c2ccccc2)C1=O
5. CN(C)CCOC1c2ccccc2C=Cc2ccccc21.O=C(O)/C=C\C(=O)O
6. CC(Oc1ccc(Br)cc1Br)C(=O)Nc1cccnc1 (stereo not drawn)
7. Cc1ccc(SCc2ccc(C(=O)N3CCCCC3)cc2)cc1

Marked response:
1. > 60.2 µg/mL
2. > 50.2 µg/mL
3. > 41.2 µg/mL
4. < 0.3 µg/mL
5. > 59.3 µg/mL
6. 7.2 µg/mL
7. 6.1 µg/mL

Could you tell me solubility kinetic for each of these molecules? They are listed below.
1. C[C@@H]1C2CC(C/C2=N\NC(=O)c2ccncc2)C1(C)C (stereo partly drawn)
2. COc1ccc(NC(=O)c2ccc(NC(=O)CN3CCN(c4ccccc4)CC3)cc2)cc1
3. COC(=O)c1scc(C)c1NS(=O)(=O)c1ccc(NC(C)=O)cc1

Marked response:
1: > 40.7 µg/mL; 2: 1.4 µg/mL; 3: > 55.3 µg/mL

* * *

- Test Context: buffer; pH 7.4; 200.0 µM
Measurement Kind: solubility kinetic

Here are 4 molecules together with their reported answers.
[[record]]
molecule = "CC1=C([N+](=O)[O-])C(c2ccccc2C(F)(F)F)NC(=O)N1C (configuration not stated)"
endpoint_value = "> 47.3 µg/mL"

[[record]]
molecule = "Cc1ccc(/C(O)=C2\\C(=O)C(=O)N(C)C2c2ccc(F)cc2)cc1 (configuration not stated)"
endpoint_value = "> 48.8 µg/mL"

[[record]]
molecule = "COc1ccc(C(=O)Nc2nc(C)cc(C)n2)cc1"
endpoint_value = "> 38.6 µg/mL"

[[record]]
molecule = "O=[N+]([O-])c1ccc(-c2nc(NCC3CCCO3)c3ccccc3n2)cc1 (configuration not stated)"
endpoint_value = "0.6 µg/mL"


Could you tell me solubility kinetic for each of these molecules? They are listed below.
1. Cc1ccc(NC(=S)NC(=O)C2CCCCC2)c(Br)c1
2. COc1ccc(C(=O)NCC2CCCO2)cc1OC (configuration not stated)
3. O=c1c(Cc2ccccc2)c(O)ccn1C1CCCCCCC1
4. O=C1/C(=C/c2cccs2)SC(=S)N1c1cccc(O)c1
5. CN(CC(=O)NCCc1ccc(S(N)(=O)=O)cc1)CC(=O)Nc1ccc(Cl)cc1

Marked response:
1.7 µg/mL
35.7 µg/mL
1.5 µg/mL
1 µg/mL
> 65.8 µg/mL

Could you tell me solubility kinetic for each of these molecules? They are listed below.
1. Cc1ccc(C(=O)NCC(=O)N2CCCCCCC2)cc1C
2. N#Cc1c(C(F)(F)F)cc(=O)n2c1[nH]c1ccccc12
3. CC(NC(=O)COc1ccccc1)C(=O)N1CCN(c2ccc(F)cc2)CC1 (configuration not stated)
4. O=C(Nc1ccc(Cl)cc1)c1cc(-c2cccs2)on1
5. O=C(Nc1cccc(Cl)c1)c1ccc2c(c1)OCCO2

Marked response:
> 45.4 µg/mL
> 41.6 µg/mL
> 57.8 µg/mL
< 0.3 µg/mL
6.3 µg/mL
